tested on: A549-ACE2; assay: drug-induced phospholipidosis relative to tamoxifen; higher = more phospholipidosis; conditions: 0.3 µM; 24 h
drug-induced phospholipidosis values by entry
Just the number please, in %, no unit attached.

Examples with answers:
- compound: "CSc1ccc2c(c1)[C@H](N1CCN(C)CC1)Cc1ccccc1S2 (racemic) [metitepine]"
  unit abbrev: "%"
  drug-induced phospholipidosis: 7.38
- compound: "CN1CC2c3ccccc3Oc3ccc(Cl)cc3C2C1 (stereo not given)"
  unit abbrev: "%"
  drug-induced phospholipidosis: 0.93
- compound: "O=C(COc1ccc(Cl)cc1)N[C@H]1CC[C@H](NC(=O)COc2ccc(Cl)cc2)CC1"
  unit abbrev: "%"
  drug-induced phospholipidosis: -0.51
- compound: "Cc1[nH]c(/C=C2\\C(=O)Nc3ccc(F)cc32)c(C)c1C(=O)NCCN1CCCC1"
  unit abbrev: "%"
  drug-induced phospholipidosis: 4.88

Prompt: Supply recorded drug-induced phospholipidosis for `Fc1ccc(-n2cc(CCCCN3CCC4(CC3)OCc3ccccc34)c3ccccc32)cc1` here.
Completion: 2.74

Values were extracted from the supplement of paper PMC13380429.
